Recorded melting point, one value per entry.

Please review the following examples before continuing.
compound: O=C1CC2(CCCCC2)Oc2cc(OCCCN3CCN(c4ccccc4C(F)(F)F)CC3)ccc21
melting point: 138 to 140 °C
//
compound: CC1(C)CC(=O)c2ccc(OCCCN3CCC(c4noc5cc(F)ccc45)CC3)cc2O1
melting point: 116 to 118 °C
//
compound: O=C1CC2(CCCC2)Oc2cc(OCCCCN3CCC(c4noc5cc(F)ccc45)CC3)ccc21
melting point: 103 to 105 °C
//
compound: CC1(C)CC(=O)c2ccc(OCCCCN3CCN(c4ccccc4)CC3)cc2O1
melting point: 131 to 133 °C
//
compound: Cc1cccc(N2CCN(CCCCOc3ccc4c(c3)OC3(CCCCC3)CC4=O)CC2)c1C
melting point: 138 to 140 °C
//
compound: O=C1CC2(CCCC2)Oc2cc(OCCCN3CCC(c4noc5cc(F)ccc45)CC3)ccc21
melting point: 91 to 93 °C
//
compound: COc1ccccc1N1CCN(CCCOc2ccc3c(c2)OC(C)(C)CC3=O)CC1
melting point: 103 to 105 °C
//
compound: COc1ccccc1N1CCN(CCCOc2ccc3c(c2)OC2(CCCC2)CC3=O)CC1
melting point: 128 to 130 °C
//
compound: Cc1cc2c(cc1OCCCCN1CCC(c3noc4cc(F)ccc34)CC1)OCCC2=O [Compound 13c]
melting point: 91 to 93 °C
//
compound: CC1(C)CC(=O)c2ccc(OCCCCN3CCN(c4cccc(C(F)(F)F)c4)CC3)cc2O1
melting point: 139 to 140 °C

Next, consider the following compound.
Exercise: Consider the compound shown here: CC1(C)CC(=O)c2ccc(OCCCCN3CCN(c4nsc5ccccc45)CC3)cc2O1 What is its recorded melting point?
Solution: 119 to 120 °C

---

# system: hERG potassium channels (Homo sapiens, UniProt Q12809)
# Sequence (Q12809 whole entry): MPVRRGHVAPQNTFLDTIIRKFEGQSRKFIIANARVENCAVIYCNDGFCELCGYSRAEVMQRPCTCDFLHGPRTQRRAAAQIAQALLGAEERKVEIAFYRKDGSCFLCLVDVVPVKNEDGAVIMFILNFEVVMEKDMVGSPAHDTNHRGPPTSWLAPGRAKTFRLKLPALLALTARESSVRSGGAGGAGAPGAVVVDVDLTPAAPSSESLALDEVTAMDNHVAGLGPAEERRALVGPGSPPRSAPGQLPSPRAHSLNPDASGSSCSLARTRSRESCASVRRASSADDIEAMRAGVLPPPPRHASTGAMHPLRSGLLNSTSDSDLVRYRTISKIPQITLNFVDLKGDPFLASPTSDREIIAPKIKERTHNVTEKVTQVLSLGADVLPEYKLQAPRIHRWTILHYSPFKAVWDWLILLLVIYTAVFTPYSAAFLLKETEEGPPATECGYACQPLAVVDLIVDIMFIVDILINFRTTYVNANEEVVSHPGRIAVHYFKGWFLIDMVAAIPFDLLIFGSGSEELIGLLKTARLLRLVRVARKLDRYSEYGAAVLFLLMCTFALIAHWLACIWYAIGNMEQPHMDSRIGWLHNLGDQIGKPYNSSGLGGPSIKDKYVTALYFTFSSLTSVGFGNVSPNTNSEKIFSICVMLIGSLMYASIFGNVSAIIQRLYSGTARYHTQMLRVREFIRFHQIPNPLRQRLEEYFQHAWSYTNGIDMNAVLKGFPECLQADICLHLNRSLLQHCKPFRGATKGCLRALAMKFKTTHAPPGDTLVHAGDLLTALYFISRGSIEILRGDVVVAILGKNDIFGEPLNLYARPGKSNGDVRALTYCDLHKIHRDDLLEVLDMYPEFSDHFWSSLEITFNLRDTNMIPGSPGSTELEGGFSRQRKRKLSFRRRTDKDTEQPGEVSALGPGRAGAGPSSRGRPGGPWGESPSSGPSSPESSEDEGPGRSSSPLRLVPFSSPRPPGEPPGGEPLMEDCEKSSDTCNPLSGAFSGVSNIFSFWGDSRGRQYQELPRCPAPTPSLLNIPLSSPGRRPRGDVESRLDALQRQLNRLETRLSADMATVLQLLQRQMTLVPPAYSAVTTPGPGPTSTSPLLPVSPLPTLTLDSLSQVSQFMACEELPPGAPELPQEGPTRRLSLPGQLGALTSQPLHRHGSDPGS
# test-name: hERG potassium channel block, patch clamp in HEK cells
property-name: pIC50
FYI, pIC50 means -log10 of a concentration in mol per litre.

Exercise: Form field: reported pIC50 of O=C1CC2(CCCCC2)Oc2cc(OCCCCN3CCC(c4noc5cc(F)ccc45)CC3)ccc21 [Compound 9h]
Solution: 5.40

Exercise: Also check O=C1CC2(CCCC2)Oc2cc(OCCCCN3CCC(c4noc5cc(F)ccc45)CC3)ccc21 [Compound 9d]
Solution: 5.47

Exercise: Let us now turn to O=C1CC2(CCCCC2)Oc2cc(OCCCN3CCC(c4noc5cc(F)ccc45)CC3)ccc21 [Compound 9g]
Solution: 5.52

Exercise: Repeat with CC1(C)CC(=O)c2ccc(OCCCCN3CCC(c4noc5cc(F)ccc45)CC3)cc2O1 [Compound 6j]
Solution: 5.42

---

# system: D2 receptor (Rattus norvegicus, UniProt P61169)
# Sequence (P61169 whole entry): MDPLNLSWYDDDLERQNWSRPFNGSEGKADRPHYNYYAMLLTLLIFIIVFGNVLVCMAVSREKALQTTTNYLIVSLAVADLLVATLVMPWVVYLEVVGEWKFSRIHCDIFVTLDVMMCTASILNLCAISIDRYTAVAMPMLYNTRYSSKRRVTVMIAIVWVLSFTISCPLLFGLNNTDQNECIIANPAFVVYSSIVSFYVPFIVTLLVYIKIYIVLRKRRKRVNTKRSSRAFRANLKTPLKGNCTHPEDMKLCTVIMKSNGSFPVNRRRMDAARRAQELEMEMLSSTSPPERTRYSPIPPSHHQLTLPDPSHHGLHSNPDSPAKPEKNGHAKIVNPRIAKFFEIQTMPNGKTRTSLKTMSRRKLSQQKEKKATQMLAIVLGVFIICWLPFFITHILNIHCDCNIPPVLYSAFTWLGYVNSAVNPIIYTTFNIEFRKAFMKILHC
# test-name: D2 receptor radioligand binding (3H-spiperone)
# measurement-context: Receptor Affinity Ki ± SEM D2, rat striatum, 3H-spiperone; mean ± SEM of three experiments
pKi: −log10 of the molar value.
property-name: pKi

molecule: COc1ccccc1N1CCN(CCCOc2ccc3c(c2)OC2(CCCC2)CC3=O)CC1 [Compound 9a]
system: D2 receptor (Rattus norvegicus, UniProt P61169)
observed: 5.41

A = COc1ccccc1N1CCN(CCCCOc2ccc3c(c2)OC2(CCCC2)CC3=O)CC1 [Compound 9b]
B = CC1CC(=O)c2ccc(OCCCCN3CCC(c4noc5cc(F)ccc45)CC3)cc2O1 (stereo not drawn) [Compound 16a]
Exercise: Which record shows the lower pKi: the first, A , or the second, B ? Please identify the chosen entry by its label.
Solution: A
(A: 5.42, B: 7.71)
